Measurement target: IRAK4 (Homo sapiens, UniProt Q9NWZ3)
Construct: Degradation of IRAK4 in OCI-LY10 was quantitatively measured using Meso Scale Discovery technology; endogenous in cells; host or cells: OCI-LY10
Test summary: IRAK4 MSD Degradation in OCI-LY10
Format: cell-based
Condition notes: OCI-LY10 cells, 24 hrs incubation, MSD; read-out: IRAK4 degradation in OCI-LY10 at 24 hrs: DC50
Measured attribute: DC50

Cn1c(=O)n(C2CCC(=O)NC2=O)c2cccc(N3CCN(C[C@]4(O)CC[C@@H](n5cc6cc(NC(=O)c7cccc(C(F)(F)F)n7)ccc6n5)CC4)CC3)c21 (some centres unmarked); < 10 nM
COc1cc2nn([C@H]3CC[C@H](CN4CCC5(CC4)CCN(c4cccc6c4n(C)c(=O)n6C4CCC(=O)NC4=O)CC5)CC3)cc2cc1NC(=O)c1cncc([S+](C)[O-])c1 (some centres unmarked); > 200 nM
COc1cc2nn([C@H]3CC[C@H](CN4CCC5(CC4)CCN(c4cccc(C6CCC(=O)NC6=O)c4)CC5)CC3)cc2cc1NC(=O)c1cncc(C#N)c1 (some centres unmarked); 100 to 200 nM
Cn1c(=O)n(C2CCC(=O)NC2=O)c2cccc(C#CCN3CCN(C(C#N)[C@H]4CC[C@H](n5cc(NC(=O)c6cnn7ccc(N8C[C@H]9C[C@@H]8CO9)nc67)c(C(F)F)n5)CC4)CC3)c21 (some centres unmarked); 10 to 100 nM

## Task Value lookup for DC50; key = Cn1c(=O)n(C2CCC(=O)NC2=O)c2cccc([C@H]3CCN(C[C@H]4CC[C@H](n5cc6cc(NC(=O)c7cccc(C(F)(F)F)n7)ncc6n5)CC4)C[C@H]3F)c21 (single isomer, unassigned)
## Result > 200 nM

* * *

Measurement target: IRAK4 (Homo sapiens, UniProt Q9NWZ3)
Construct: Degradation of IRAK4 in OCI-LY10 was quantitatively measured using Meso Scale Discovery technology; endogenous in cells; host or cells: OCI-LY10
Test summary: IRAK4 MSD Degradation in OCI-LY10
Assay type: cell-based
Condition notes: OCI-LY10 cells, 24 hrs incubation, MSD; read-out: IRAK4 degradation in OCI-LY10 at 24 hrs: DC50
Measured attribute: DC50

Example results:
CN(C)c1ccn2ncc(C(=O)Nc3cn([C@H]4CC[C@H](CN5CCN(CC#Cc6cccc7c6n(C)c(=O)n7C6CCC(=O)NC6=O)CC5)CC4)nc3C(F)F)c2n1 (stereo partly drawn) [I-101]; > 200 nM
Cn1c(=O)n(C2CCC(=O)NC2=O)c2cccc(C3CCN(CC4COC5(C4)CN(C[C@H]4CC[C@H](n6cc7cc(NC(=O)c8cccc(C(F)(F)F)n8)c(C(C)(C)O)cc7n6)CC4)C5)CC3)c21 (stereo partly drawn) [I-667]; > 200 nM

## Task Entry CN(C[C@H]1CC[C@H](n2cc(NC(=O)c3cnn4ccc(N5CC(C)(C)OC(C)(C)C5)nc34)c(C(F)F)n2)CC1)C1CCN(c2cccc3c2n(C)c(=O)n3C2CCC(=O)NC2=O)CC1(F)F (stereo partly drawn) [I-531] , system IRAK4 (Homo sapiens, UniProt Q9NWZ3): what DC50 was measured?
## Result > 200 nM

* * *

compounds and their reported DC50
Measurement target: IRAK4 (Homo sapiens, UniProt Q9NWZ3)
Construct: Degradation of IRAK4 in OCI-LY10 was quantitatively measured using Meso Scale Discovery technology; endogenous in cells; host or cells: OCI-LY10
Test summary: IRAK4 MSD Degradation in OCI-LY10
Type: cell-based
Condition notes: OCI-LY10 cells, 24 hrs incubation, MSD; read-out: IRAK4 degradation in OCI-LY10 at 24 hrs: DC50

Example results:
Cn1c(=O)n(C2CCC(=O)NC2=O)c2cccc(N3CCC4(CCN(C[C@H]5CC[C@H](c6nc7cc(C(C)(C)O)c(NC(=O)c8cncc(C#N)c8)cc7s6)CC5)CC4)CC3)c21 (some centres unmarked) [I-97]; > 200 nM
C[C@@H]([C@H]1C[C@H](c2cccc3c2n(C)c(=O)n3C2CCC(=O)NC2=O)C1)N1CCN(C[C@H]2CC[C@H](n3cc(NC(=O)c4cnn5ccc(N6C[C@H]7CC6CO7)nc45)c(C(F)F)n3)CC2)CC1 (some centres unmarked) [I-575]; > 200 nM
Cn1c(=O)n(C2CCC(=O)NC2=O)c2cccc(O[C@H]3C[C@H](N4CCN(C[C@H]5CC[C@H](n6cc(NC(=O)c7cnn8ccc(N9C[C@H]%10CC9CO%10)nc78)c(C(F)F)n6)CC5)CC4)C3)c21 (some centres unmarked) [I-577]; > 200 nM

## Task Value lookup for DC50; key = Cn1c(=O)n(C2CCC(=O)NC2=O)c2cccc(N3CC4(CCN(C[C@H]5CC[C@H](n6cc(NC(=O)c7cnn8ccc(N9C[C@H]%10C[C@@H]9CO%10)nc78)c(C(F)F)n6)CC5)CC4(F)F)C3)c21 (some centres unmarked) [I-669]
## Result < 10 nM

## Task Value lookup for DC50; key = O=C1CCN(c2cncc3c(C4CCN(C[C@H]5CC[C@H](n6cc7cc(NC(=O)c8cccc(C(F)(F)F)n8)ccc7n6)CC5)CC4(F)F)cccc23)C(=O)N1 (some centres unmarked) [I-469]
## Result > 200 nM

* * *

Measurement target: IRAK4 (Homo sapiens)
Construct: Degradation of IRAK4 in OCI-LY10 was quantitatively measured using Meso Scale Discovery technology; endogenous in cells; host or cells: OCI-LY10
Sequence (Q9NWZ3 1-460): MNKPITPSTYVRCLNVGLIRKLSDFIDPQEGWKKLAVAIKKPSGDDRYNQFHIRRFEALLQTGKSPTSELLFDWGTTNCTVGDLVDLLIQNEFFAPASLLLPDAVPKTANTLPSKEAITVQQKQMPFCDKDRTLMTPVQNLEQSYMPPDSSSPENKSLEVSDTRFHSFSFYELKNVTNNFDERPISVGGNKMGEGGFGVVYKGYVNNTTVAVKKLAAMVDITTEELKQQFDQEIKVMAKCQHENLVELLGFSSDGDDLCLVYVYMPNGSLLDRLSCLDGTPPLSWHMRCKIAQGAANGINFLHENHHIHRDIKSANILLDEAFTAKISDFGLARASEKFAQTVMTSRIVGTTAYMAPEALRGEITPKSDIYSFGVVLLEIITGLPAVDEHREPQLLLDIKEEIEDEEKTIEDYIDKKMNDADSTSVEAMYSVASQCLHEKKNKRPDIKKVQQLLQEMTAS
Test summary: IRAK4 MSD Degradation in OCI-LY10
Type: cell-based
Condition notes: OCI-LY10 cells, 24 hrs incubation, MSD; read-out: IRAK4 degradation in OCI-LY10 at 24 hrs: DC50
compounds and their reported DC50

Cc1ccc(-c2nn([C@H]3CC[C@H](CN4CCN(CC#Cc5cccc6c5n(C)c(=O)n6C5CCC(=O)NC5=O)CC4)CC3)cc2NC(=O)c2cnn3cccnc23)c(F)c1 (some centres unmarked); 10 to 100 nM
Cn1c(=O)n(C2CCC(=O)NC2=O)c2cccc(C#CCOC3CCN(C[C@H]4CC[C@H](n5cc(NC(=O)c6cnn7ccc(N8CCC9(CC8)COC9)nc67)c(C(F)F)n5)CC4)CC3)c21 (some centres unmarked); > 200 nM
COc1ccc2c(c1C1CCN(C[C@H]3CC[C@H](n4cc5cc(NC(=O)c6cccc(C(F)(F)F)n6)ccc5n4)CC3)CC1F)n(C)c(=O)n2C1CCC(=O)NC1=O (some centres unmarked); > 200 nM
Cn1c(=O)n(C2CCC(=O)NC2=O)c2cccc(C#CCOC3CCN(C[C@H]4CC[C@H](n5cc(NC(=O)c6cnn7ccc(C8COCCN8)nc67)c(C(F)F)n5)CC4)CC3)c21 (some centres unmarked); > 200 nM

Here is another compound to look at.
## Task Value lookup for DC50; key = COc1cncc(C(=O)Nc2cc3cn([C@H]4CC[C@H](CN5CCC6(CC5)CCN(c5cccc7c5n(C)c(=O)n7C5CCC(=O)NC5=O)CC6)CC4)nc3cc2OC)c1 (some centres unmarked)
## Result > 200 nM

* * *

Measurement target: IRAK4 (Homo sapiens, UniProt Q9NWZ3)
Construct: Degradation of IRAK4 in OCI-LY10 was quantitatively measured using Meso Scale Discovery technology; endogenous in cells; host or cells: OCI-LY10
Test summary: IRAK4 MSD Degradation in OCI-LY10
Format: cell-based
Condition notes: OCI-LY10 cells, 4 hrs incubation, MSD; read-out: IRAK4 degradation in OCI-LY10 at 4 hrs: DC50
compounds and their reported DC50

Example results:
COc1cc2nn([C@H]3CC[C@H](CN4CCC(c5ccc6c(c5)n(C)c(=O)n6C5CCC(=O)NC5=O)C(F)(F)C4)CC3)cc2cc1NC(=O)c1cccc(C(F)(F)F)n1 (stereo partly drawn); > 200 nM
Cn1c(=O)n(C2CCC(=O)NC2=O)c2ccc(N3CC(CO[C@@H]4CCN(C[C@H]5CC[C@H](n6cc(NC(=O)c7cnn8ccc(N9C[C@H]%10C[C@@H]9CO%10)nc78)c(C(F)F)n6)CC5)C[C@H]4F)C3)c(F)c21 (stereo partly drawn); > 200 nM

## Task Value lookup for DC50; key = COc1cc2nn([C@H]3CC[C@H](CN(C)C4CCN(c5cccc6c5n(C)c(=O)n6C5CCC(=O)NC5=O)CC4F)CC3)cc2cc1NC(=O)c1cccc(C(F)(F)F)n1 (stereo partly drawn)
## Result > 200 nM
